Cited source for all entries: patent US7531554B2

- measurement.target: HIV integrase (Human immunodeficiency virus type 1 group M subtype B, UniProt P12497, F1332H)
- Construct: HIV integrase full length gene (J. Virol., 67, 425-437 (1993)) in which phenylalanine at codon 185 was substituted by histidine
- assay.text: Determination of enzyme (HIV integrase) inhibitory activity
- recorded.conditions: recombinant integrase protein (F185H), donor DNA/target DNA, absorbance at 450 nm
attribute.measured: pIC50
Formally, pIC50 is defined as -log10 of the concentration c, with c in mol/L.

Example entries begin here.
CS(=O)(=O)C[C@@H](CO)n1cc(C(=O)O)c(=O)c2cc(Cc3cccc(Cl)c3F)ccc21 [Example 2-8] ... 7.70
CC(C)[C@@H](CO)n1cc(C(=O)O)c(=O)c2cc(Cc3cccc(Cl)c3F)cc(OCc3ccccc3)c21 [Example 3-9] ... 8.30
CC(C)[C@@H](CO)n1cc(C(=O)O)c(=O)c2cc(Cc3cccc(Cl)c3F)c(OCc3ccc(C#N)cc3)cc21 [Example 4-56] ... 8.30
COc1cc2c(cc1C(O)c1cccc(Cl)c1F)c(=O)c(C(=O)O)cn2[C@H](CO)C(C)C (single isomer, unassigned) [Example 7-8] ... 7.41

[ask] Can you share its pIC50? I mean this compound: COc1cc2c(cc1Cc1cc(F)c(F)c(Cl)c1F)c(=O)c(C(=O)O)cn2[C@H](CO)C(C)C [Example 1-7]
[reply] 8.26

[ask] Entry to check: CC(C)[C@@H](CO)n1cc(C(=O)O)c(=O)c2cc(Cc3cccc(Cl)c3F)c(Oc3ccccc3)cc21 [Example 4-44]
[reply] 8.31

[ask] Entry to check: CC(C)[C@@H](CO)n1cc(C(=O)O)c(=O)c2cc(Cc3cccc(Cl)c3F)c(OCCN3CCN(C)CC3)cc21 [Example 4-51, ditrifluoroacetate]
[reply] 8.22
